Experiment: activity coefficient (dimensionless); of the first substance listed, at infinite dilution; xn = mol fraction of the nth substance listed
Conditions: 328.15 K; 101.33 kPa; Liquid; Chromatography; x1 = 0
The threshold is 0.7. Values of activity coefficient beneath it are tagged label 1; values meeting or exceeding it are tagged label 0.

Worked examples follow.
> print(dat)
                                   compound  discrete.label
1  Cc1ccccc1 [toluene] + CCCCCCCCCCCCCC[P+](CCCCCC)(CCCCCC)CCCCCC.N#CC(=C=[N-])C#N         label 1
2  COC(C)=O [methyl ethanoate] + CCCCCCCCCCCCCC[P+](CCCCCC)(CCCCCC)CCCCCC.N#CC(=C=[N-])C#N         label 1
3  CCCCCCC [heptane] + CCCCCCCCCCCCCC[P+](CCCCCC)(CCCCCC)CCCCCC.N#CC(=C=[N-])C#N         label 0

q: Please indicate whether the reported activity coefficient of Cc1ccccc1C [1,2-dimethylbenzene] + CCCCCCCCCCCCCC[P+](CCCCCC)(CCCCCC)CCCCCC.N#CC(=C=[N-])C#N is strictly below 0.7.
a: label 1

q: Please indicate whether the reported activity coefficient of CCCOCCC [dipropyl ether] + CCCCCCCCCCCCCC[P+](CCCCCC)(CCCCCC)CCCCCC.N#CC(=C=[N-])C#N is strictly below 0.7.
a: label 0

* * *

Measured activity coefficient accompanies every entry in the list below.
Assay: activity coefficient (dimensionless); of the first substance listed, at infinite dilution; xn = mol fraction of the nth substance listed
Conditions: 348.15 K; 101.33 kPa; Liquid; Chromatography; x1 = 0
Kindly provide the number alone.

> print(dat)
                                   compound  data.value
1  CO [methanol] + CCCCCCCCCCCCCC[P+](CCCCCC)(CCCCCC)CCCCCC.N#CC(=C=[N-])C#N       0.408
2  Cc1ccccc1C [1,2-dimethylbenzene] + CCCCCCCCCCCCCC[P+](CCCCCC)(CCCCCC)CCCCCC.N#CC(=C=[N-])C#N       0.706
3  C=CCCCCC [1-heptene] + CCCCCCCCCCCCCC[P+](CCCCCC)(CCCCCC)CCCCCC.N#CC(=C=[N-])C#N        1.64

Shifting focus to the compound that follows.
q: Report activity coefficient for C#CCCCC [1-hexyne] + CCCCCCCCCCCCCC[P+](CCCCCC)(CCCCCC)CCCCCC.N#CC(=C=[N-])C#N please.
a: 0.914

* * *

Assay: activity coefficient (dimensionless); of the first substance listed, at infinite dilution; xn = mol fraction of the nth substance listed
Conditions: 358.15 K; 101.33 kPa; Liquid; Chromatography; x1 = 0
Test Readout: activity coefficient
Kindly provide the number alone.

Some compounds with recorded activity coefficient:
> print(dat)
                                   compound  data.value
1  CCCCC [pentane] + CCCCCCCCCCCCCC[P+](CCCCCC)(CCCCCC)CCCCCC.N#CC(=C=[N-])C#N        1.67
2  CC(C)OC(C)C [diisopropyl ether] + CCCCCCCCCCCCCC[P+](CCCCCC)(CCCCCC)CCCCCC.N#CC(=C=[N-])C#N        1.62

Shifting focus to the compound that follows.
q: Report activity coefficient for C1COCCO1 [1,4-dioxane] + CCCCCCCCCCCCCC[P+](CCCCCC)(CCCCCC)CCCCCC.N#CC(=C=[N-])C#N please.
a: 0.628
